Sourced from PubChem BioAssay (NCI)

System: SF-295 CNS
Experiment: NCI tumour cell line growth inhibition, 48 h
# Lookup of reported TGI keyed by entry

[
  {
    "compound": "C[C@@H](N)COc1ccc(-c2cnc3ccc(N[C@H](C)c4cccc(F)c4)nn23)cc1",
    "study system": "SF-295 CNS",
    "lt gt eq": "=",
    "TGI (µM)": 4.01
  },
  {
    "compound": "COc1ccc(-n2c(SC(CN3CCOCC3)CN3CCCC3=O)nc3ccccc3c2=O)cc1 (stereo not given)",
    "study system": "SF-295 CNS",
    "lt gt eq": ">",
    "TGI (µM)": 100
  },
  {
    "compound": "Cc1cc2nc3c(C#N)c4c(c(Nc5ccc(F)cc5)n3c2cc1C)CCC4",
    "study system": "SF-295 CNS",
    "lt gt eq": ">",
    "TGI (µM)": 100
  },
  {
    "compound": "Cn1c(-c2ccc[se]2)ccc1-c1ccc(C=O)[se]1",
    "study system": "SF-295 CNS",
    "lt gt eq": "=",
    "TGI (µM)": 58.8
  },
  {
    "compound": "C/C(CCC(=O)O)=N/Nc1ccc([N+](=O)[O-])cc1",
    "study system": "SF-295 CNS",
    "lt gt eq": ">",
    "TGI (µM)": 100
  }
]

====

System: PC-3 prostate
Experiment: NCI tumour cell line growth inhibition, 48 h
# Lookup of reported TGI keyed by entry

[
  {
    "compound": "CN1CC=C(c2cc(NC(=O)Nc3ccc(Oc4ccnc(NC(=O)C5CC5)c4)c(F)c3)cc(C(F)(F)F)c2)CC1",
    "TGI": "1.25 µM"
  },
  {
    "compound": "COc1cc(C2c3cc4c(cc3OC(NNc3ccccc3)C2C)OCO4)cc(OC)c1OC (configuration not stated)",
    "TGI": "> 56.3 µM"
  },
  {
    "compound": "N#CC1C[C@@H]2CC3(CCC2CN1C(=O)c1ccccc1)OCCO3 (some centres not stated)",
    "TGI": "> 100 µM"
  },
  {
    "compound": "Cn1c(-c2ccc(-c3cc(-c4cccs4)c(-c4cccs4)n3C)cc2)cc(-c2cccs2)c1-c1cccs1",
    "TGI": "> 100 µM"
  },
  {
    "compound": "COC(=O)c1cc(NC(=O)c2cc(NC(=O)c3cc([N+](=O)[O-])n(C)c3)cn2C)cn1C",
    "TGI": "> 100 µM"
  },
  {
    "compound": "COC(=O)Nc1nc2ccc(S(=O)(=O)Nc3ccccn3)cc2[nH]1",
    "TGI": "> 100 µM"
  },
  {
    "compound": "N#CC(C#N)=CNCCN1CCN(C=C(C#N)C#N)CC1",
    "TGI": "> 100 µM"
  },
  {
    "compound": "O=c1ccc2ccc(CBr)cc2o1",
    "TGI": "> 100 µM"
  },
  {
    "compound": "COc1cc(C2S/C(=C/c3ccccc3)C(=O)N2Cc2ccccc2)cc(OC)c1OC (configuration not stated)",
    "TGI": "> 100 µM"
  },
  {
    "compound": "O[C@@H]1C[C@H](Cl)c2c(Cl)sc(Cl)c21",
    "TGI": "> 100 µM"
  },
  {
    "compound": "Cc1ccc(C)c2c1C(=O)N(c1ccc(F)cc1F)C2=O",
    "TGI": "> 100 µM"
  },
  {
    "compound": "O=[N+]([O-])c1ccc(/C=C/c2nc3ccc(Cl)cc3[nH]2)cc1",
    "TGI": "> 100 µM"
  },
  {
    "compound": "COc1ccc2c(c1)N(Cc1ccc(Cl)cc1)CCC2N1CCCC1=O (configuration not stated)",
    "TGI": "38.7 µM"
  },
  {
    "compound": "Cc1nnc(N)nc1/C=C\\c1ccc(Cl)cc1Cl",
    "TGI": "> 100 µM"
  },
  {
    "compound": "Fc1cc(F)c(F)c(S)c1F",
    "TGI": "42.2 µM"
  },
  {
    "compound": "O=C(CCBr)N1CCN(C(=O)CCBr)CC1",
    "TGI": "500 µM"
  },
  {
    "compound": "COc1cccc2c1NC(=O)Cc1c-2[nH]c2ccccc12",
    "TGI": "> 100 µM"
  },
  {
    "compound": "Oc1c(CN2CCCC2)ccc2cccnc12",
    "TGI": "> 100 µM"
  },
  {
    "compound": "COc1ccc2c(c1)CC[C@@H]1C2CC[C@]2(C)C(=O)N(CCN(C)C)C(=O)CC12 (some centres not stated)",
    "TGI": "> 100 µM"
  },
  {
    "compound": "CS(=O)(=O)N1CCC(n2c(=O)c(Oc3ccc(F)cc3F)cc3cnc(NC4CCOCC4)nc32)CC1",
    "TGI": "> 25 µM"
  },
  {
    "compound": "Clc1ccc(CCNC2(c3cc4ccccc4s3)CCCCC2)cc1Cl",
    "TGI": "> 100 µM"
  },
  {
    "compound": "Cc1ccccc1C1=C(c2cn(C)c3ccccc23)C(=O)NC1=O",
    "TGI": "> 25 µM"
  }
]

====

# Lookup of reported TGI keyed by entry
Test system: HCT-15 colon
Experiment: NCI tumour cell line growth inhibition, 48 h

[
  {
    "compound": "CNS(=O)(=O)OCC1OC(n2cnc3cncnc32)C(O)C1O (stereo not given)",
    "study system": "HCT-15 colon",
    "TGI": "> 100 µM"
  },
  {
    "compound": "COC1OCC(O)C(NC(=O)N(C)N=O)C1O (stereo not given)",
    "study system": "HCT-15 colon",
    "TGI": "> 100 µM"
  },
  {
    "compound": "CC(=O)c1ccccc1NC(=O)C(=O)C(C(=O)c1ccc2ccccc2c1)C1OC(=O)c2ccccc21 (stereo not given)",
    "study system": "HCT-15 colon",
    "TGI": "40.1 µM"
  },
  {
    "compound": "O[C@@H]1C[C@H](Cl)c2c(Cl)sc(Cl)c21",
    "study system": "HCT-15 colon",
    "TGI": "> 100 µM"
  },
  {
    "compound": "O=C(Cn1c(C(=O)c2ccc(Cl)cc2)nc(-c2ccc(Cl)cc2)c1-c1ccc(Cl)cc1)c1ccccc1",
    "study system": "HCT-15 colon",
    "TGI": "> 100 µM"
  },
  {
    "compound": "CC(=O)OCC12CN(C#N)C3C4COC(CC41)C1(C(=O)N(C)c4ccccc41)C32 (stereo not given)",
    "study system": "HCT-15 colon",
    "TGI": "35.5 µM"
  },
  {
    "compound": "Cn1c(-c2ccc(-c3cc(-c4cccs4)c(-c4cccs4)n3C)cc2)cc(-c2cccs2)c1-c1cccs1",
    "study system": "HCT-15 colon",
    "TGI": "> 100 µM"
  },
  {
    "compound": "CC#C[C@]1(O)CCC2[C@@H]3CCC4=CC(=O)CCC4=C3[C@@H](c3ccc(N(C)C)cc3)C[C@@]21C (stereo not given in full)",
    "study system": "HCT-15 colon",
    "TGI": "> 100 µM"
  },
  {
    "compound": "CN(C)C1CCN(Cc2ccc(NC(=O)c3cncc(C#Cc4cnc(N)c5ncccc45)c3)cc2C(F)(F)F)CC1",
    "study system": "HCT-15 colon",
    "TGI": "13.7 µM"
  },
  {
    "compound": "CCn1c(-c2nonc2N)nc2c(C#CC(C)(C)O)ncc(OC3CCNCC3)c21",
    "study system": "HCT-15 colon",
    "TGI": "> 25 µM"
  },
  {
    "compound": "N#Cc1c(NCc2ccccc2)nc(NCc2ccccc2)c(C#N)c1-c1ccc(Cl)cc1",
    "study system": "HCT-15 colon",
    "TGI": "> 100 µM"
  },
  {
    "compound": "CN(C)C(=O)Oc1c(Br)cc(Br)cc1C(=O)OCc1ccccc1",
    "study system": "HCT-15 colon",
    "TGI": "> 81.7 µM"
  },
  {
    "compound": "CC1=C/C=C/C(=O)O[C@@H]([C@H](C)[C@H](O)[C@@H](C)NC(=O)C(C)C)[C@H](C)/C=C/C(C)=C/[C@H]2C=CCC[C@@]2(C)\\C=C\\1",
    "study system": "HCT-15 colon",
    "TGI": "9.15 µM"
  },
  {
    "compound": "Cn1cc(C2=C(c3c4n(c5ccccc35)CCNC4)C(=O)NC2=O)c2ccccc21",
    "study system": "HCT-15 colon",
    "TGI": "> 25 µM"
  },
  {
    "compound": "CCOC(=O)c1nc2ccc(OC)cc2c2c1Cc1ccccc1-2",
    "study system": "HCT-15 colon",
    "TGI": "> 100 µM"
  },
  {
    "compound": "Fc1cc(F)c(F)c(S)c1F",
    "study system": "HCT-15 colon",
    "TGI": "> 100 µM"
  },
  {
    "compound": "CCCCCCCCCCCCCC[n+]1ccccc1",
    "study system": "HCT-15 colon",
    "TGI": "13.2 µM"
  },
  {
    "compound": "N#CC(C#N)=NNc1ccc2cn[nH]c2c1",
    "study system": "HCT-15 colon",
    "TGI": "> 100 µM"
  },
  {
    "compound": "C[C@@]1(CCCCCCCCCCc2ccccc2)C[C@@]2(C)OC(=O)C[C@H]2OO1",
    "study system": "HCT-15 colon",
    "TGI": "44.3 µM"
  },
  {
    "compound": "CC1CCC2C(C)C(=O)OC3OC4(C)CCC1C32OO4 (stereo not given)",
    "study system": "HCT-15 colon",
    "TGI": "> 100 µM"
  },
  {
    "compound": "CCN1c2ccccc2NC(=S)c2c1n[nH]c2-c1ccccc1",
    "study system": "HCT-15 colon",
    "TGI": "87.9 µM"
  },
  {
    "compound": "COC(=O)[C@H]1COC(=S)N1C(=O)[C@@H](C)[C@H](O)C(C)C",
    "study system": "HCT-15 colon",
    "TGI": "> 100 µM"
  },
  {
    "compound": "O=[N+]([O-])c1ccc(/C=C/c2nc3ccc(Cl)cc3[nH]2)cc1",
    "study system": "HCT-15 colon",
    "TGI": "> 100 µM"
  },
  {
    "compound": "Oc1cc(N2CC2)c(O)cc1N1CC1",
    "study system": "HCT-15 colon",
    "TGI": "10.4 µM"
  },
  {
    "compound": "CC1(C)CC(=O)C=C(/C=C/Sc2c(Cl)c(Cl)nc(Cl)c2Cl)C1",
    "study system": "HCT-15 colon",
    "TGI": "23 µM"
  },
  {
    "compound": "OCC1OC2c3ccccc3COC2C1OCc1ccccc1 (stereo not given)",
    "study system": "HCT-15 colon",
    "TGI": "> 100 µM"
  },
  {
    "compound": "CC1(C)OC[C@H](C(=N)OCc2ccccc2)O1",
    "study system": "HCT-15 colon",
    "TGI": "> 100 µM"
  },
  {
    "compound": "CC(C)OP(=S)(NC(=S)c1ccccc1)OC(C)C",
    "study system": "HCT-15 colon",
    "TGI": "> 100 µM"
  },
  {
    "compound": "O=C(Cc1ccccc1[N+](=O)[O-])C(CO)c1ccccc1[N+](=O)[O-] (stereo not given)",
    "study system": "HCT-15 colon",
    "TGI": "> 100 µM"
  },
  {
    "compound": "O=C(NC(=S)Nc1ccc([N+](=O)[O-])cc1)c1ccc2c(c1)Sc1ccccc1O2",
    "study system": "HCT-15 colon",
    "TGI": "> 100 µM"
  },
  {
    "compound": "COc1cc2c(NCCCCCO)ncnc2c(OC)c1OC",
    "study system": "HCT-15 colon",
    "TGI": "> 100 µM"
  },
  {
    "compound": "Cc1nnc(N)nc1/C=C\\c1ccc(Cl)cc1Cl",
    "study system": "HCT-15 colon",
    "TGI": "> 100 µM"
  },
  {
    "compound": "COc1cc(-c2cc3ncccc3c3nc(OCCN(C)C)c4cccnc4c23)cc(OC)c1OC",
    "study system": "HCT-15 colon",
    "TGI": "23.4 µM"
  },
  {
    "compound": "CC(=O)O[C@H]1C(=O)[C@@]2(C)[C@H]([C@H](OC(=O)c3ccccc3)[C@]3(O)C[C@H](OC(=O)[C@H](O)[C@@H](NC(=O)c4ccccc4)c4ccc5ccccc5c4)C(C)=C1C3(C)C)[C@]1(OC(C)=O)CO[C@@H]1C[C@@H]2O",
    "study system": "HCT-15 colon",
    "TGI": "8.4 µM"
  },
  {
    "compound": "COc1ccc(-c2cc(/C=C3\\C(=O)Nc4cc(Cl)ccc43)[nH]n2)cc1",
    "study system": "HCT-15 colon",
    "TGI": "> 100 µM"
  },
  {
    "compound": "CC1(C)NC(=O)N(CCCCCCN2C(=O)NC(C)(C)C2=O)C1=O",
    "study system": "HCT-15 colon",
    "TGI": "> 100 µM"
  },
  {
    "compound": "CCOP(=O)(CCCC(O)CNc1nc(N)nc(Cl)c1N=Nc1ccc(Cl)cc1)OCC (stereo not given)",
    "study system": "HCT-15 colon",
    "TGI": "20.2 µM"
  },
  {
    "compound": "O=C(O)CN(c1ccccc1)S(=O)(=O)c1cccc([N+](=O)[O-])c1",
    "study system": "HCT-15 colon",
    "TGI": "> 100 µM"
  },
  {
    "compound": "C/C=C1/CN2CCC34c5ccccc5N(C)C23C2CC1C4(C(=O)OC)C(OC(C)=O)O2 (stereo not given)",
    "study system": "HCT-15 colon",
    "TGI": "> 100 µM"
  },
  {
    "compound": "O=[N+]([O-])c1cc(-c2nc(=S)[nH][nH]2)ccc1O",
    "study system": "HCT-15 colon",
    "TGI": "31 µM"
  }
]
